testDescription: recombinant UMI read abundance after kanamycin selection (control-corrected) (log10(CPM+1)); higher = more efficient recombination; extreme values may be limits of the assay; sequences stand for … in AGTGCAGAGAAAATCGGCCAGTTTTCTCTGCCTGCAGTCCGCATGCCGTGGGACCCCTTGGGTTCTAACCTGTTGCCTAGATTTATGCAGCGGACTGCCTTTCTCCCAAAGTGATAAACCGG…AGGTTGGTTTCACT; site = the 11-nt donor
measuredMetric: recombinant UMI read abundance (log10)
I'd appreciate a reply containing only the number, no unit.

Item CAAATCTCATGGACCGGTTTTCCCGGTAATCCGTATTTGCA (site CAAATCTCTTG) has what recorded recombinant UMI read abundance (log10)?
1.85

Item TGTTCACCATGGACCGGTTTTCCCGGTAATCCGTATTTGAC (site TGTCCACCTGT) has what recorded recombinant UMI read abundance (log10)?
0

Item CGTTTGGCATGGACCGGTTTTCCCGGTAATCCGTATTTGGT (site CGTTTGGCTAG) has what recorded recombinant UMI read abundance (log10)?
0.00668

Item ACCTAGACATGGACCGGTTTTCCCGGTAATCCGTATTTGGG (site TCCTAGACTCC) has what recorded recombinant UMI read abundance (log10)?
0.0161

Item TACAATTCATGGACCGGTTTTCCCGGTAATCCGTATTTGCC (site TTCAATTCTGG) has what recorded recombinant UMI read abundance (log10)?
0

====

testDescription: recombinant barcode read abundance after kanamycin selection (control-corrected) (log10(CPM+1)); higher = more efficient recombination; sequences stand for … in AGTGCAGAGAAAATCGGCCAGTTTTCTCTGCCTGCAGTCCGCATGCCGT…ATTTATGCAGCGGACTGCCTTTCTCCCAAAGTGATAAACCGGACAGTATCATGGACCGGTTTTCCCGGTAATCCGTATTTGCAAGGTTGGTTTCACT; site = the 11-nt target
Class yes: recombinant barcode read abundance (log10) at least 0.2. Class no: recombinant barcode read abundance (log10) below 0.2.

TCGCGACTATGGGTTCTAACCTGTTGCCGAG [TCGCGACCTCG_LTGcore_TA_RTGcore_CT] (site TCGCGACCTCG) (LTG core: TA, RTG core: CT): no
AGGCCTCCTTGGGTTCTAACCTGTTGCCTAC [AGGCCTCCTAG_LTGcore_CT_RTGcore_GT] (site AGGCCTCCTAG) (LTG core: CT, RTG core: GT): yes
GAGTCCTCTTGGGTTCTAACCTGTTGCCTGC [GAGTCCTCTAG_LTGcore_CT_RTGcore_GC] (site GAGTCCTCTAG) (LTG core: CT, RTG core: GC): yes

With those in mind, consider the next sequence.
hey, is recombinant barcode read abundance (log10) for this one >= 0.2? ACGGGACTATGGGTTCTAACCTGTTGCAGAG [ACGGGACCTCT_LTGcore_TA_RTGcore_CT] (site ACGGGACCTCT) (LTG core: TA, RTG core: CT)
no

====

Quick list: recombinant barcode read abundance (log10) per entry.
testDescription: recombinant barcode read abundance after kanamycin selection (control-corrected) (log10(CPM+1)); higher = more efficient recombination; sequences stand for … in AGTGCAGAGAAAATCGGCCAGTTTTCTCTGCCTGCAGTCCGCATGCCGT…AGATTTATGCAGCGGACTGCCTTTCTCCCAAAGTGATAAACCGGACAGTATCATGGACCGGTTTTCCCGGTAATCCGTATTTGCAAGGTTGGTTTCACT; site = the 11-nt target
I'd appreciate a reply containing only the number, no unit.

Use the examples below as a reference point.
GTGAGGTCTTGGGTTCTAACCTGTTGCAT (site GTGAGGTCTAT): 2.71
CTAGTTACTTGGGTTCTAACCTGTTGCCT (site CTATTTACTAG): 0.177
GCCCTGCCTTGGGTTCTAACCTGTTGCCT (site GCCCTGCCTAG): 1.43
CAATGGTCTTGGGTTCTAACCTGTTGCTT (site CAATGGTCTAG): 1.07
GTCAATCCTTGGGTTCTAACCTGTTGCTG (site GTCAAGCCTCA): 0.193
TCGGACCCTTGGGTTCTAACCTGTTGCGA (site TCGAACCCTTC): 1
ACTCTAGCTTGGGTTCTAACCTGTTGCTC (site GCTCTAGCTTA): 0.265
AATTGGCCTTGGGTTCTAACCTGTTGCGT (site AATGGGCCTAC): 0.376

Item AGCCACACTTGGGTTCTAACCTGTTGCCT (site AGCCACCCTAG) has what recorded recombinant barcode read abundance (log10)?
0

Item CCTTGCCCTTGGGTTCTAACCTGTTGCCT (site CTTTGCCCTAG) has what recorded recombinant barcode read abundance (log10)?
0.117
